- TARGET_OF_ASSAY: Human rhinovirus A protease (Human rhinovirus sp.) (UniProt Q4U254)
- Sequence (Q4U254 as listed by the source): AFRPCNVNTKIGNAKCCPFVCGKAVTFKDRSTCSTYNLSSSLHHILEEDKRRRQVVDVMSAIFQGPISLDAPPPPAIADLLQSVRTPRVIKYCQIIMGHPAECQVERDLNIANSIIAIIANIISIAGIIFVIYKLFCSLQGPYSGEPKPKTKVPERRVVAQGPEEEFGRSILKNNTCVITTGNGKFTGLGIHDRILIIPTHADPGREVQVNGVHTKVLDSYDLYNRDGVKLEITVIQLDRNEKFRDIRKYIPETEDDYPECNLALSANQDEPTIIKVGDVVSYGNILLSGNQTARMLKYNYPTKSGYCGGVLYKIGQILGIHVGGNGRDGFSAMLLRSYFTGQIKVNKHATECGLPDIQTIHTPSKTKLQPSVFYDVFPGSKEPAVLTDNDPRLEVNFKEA
- TEST_PROTOCOL: Binding affinity on human Rhinovirus 3C protease (rhinovirus serotype 14)

# COMPOUND, TARGET_OF_ASSAY, K obs / 1
records = [
    ("CCOC(=O)/C=C/[C@H](CCC(N)=O)NC(=O)[C@H](Cc1ccc(C(N)=O)cc1)NC(=O)[C@H](CC(C)C)NC(=O)OCc1ccccc1", "Human rhinovirus A protease (Human rhinovirus sp.) (UniProt Q4U254)", "9600 M⁻¹ s⁻¹"),
    ("CCOC(=O)/C=C/[C@H](CCC(N)=O)NC(=O)C(NC(=O)[C@H](CC(C)C)NC(=O)OCc1ccccc1)[C@H](C)O (some centres undefined)", "Human rhinovirus A protease (Human rhinovirus sp.) (UniProt Q4U254)", "1800 M⁻¹ s⁻¹"),
    ("CCOC(=O)/C=C/[C@H](CCC(N)=O)NC(=O)[C@H](Cc1ccccc1)NC(=O)[C@H](CC(C)C)NC(=O)OC1CCCCC1", "Human rhinovirus A protease (Human rhinovirus sp.) (UniProt Q4U254)", "15500 M⁻¹ s⁻¹"),
    ("CCOC(=O)/C=C/[C@H](CCC(N)=O)NC(=O)[C@H](Cc1ccc(C#N)cc1)NC(=O)[C@H](CC(C)C)NC(=O)OCc1ccccc1", "Human rhinovirus A protease (Human rhinovirus sp.) (UniProt Q4U254)", "10800 M⁻¹ s⁻¹"),
]

###

- Test system: rhinovirus B14
- TEST_PROTOCOL: Cytotoxic activity against HRV-14 in cell culture
- Type: functional, rhinovirus 14
- APPLIED_CONDITIONS: Rhinovirus B
CC50 for assorted compounds

# COMPOUND_STRUCTURE, CC50
measured = [
    ("CCOC(=O)/C=C/[C@H](CCC(N)=O)NC(=O)[C@H](CSCC)NC(=O)[C@H](CC(C)C)NC(=O)OCc1ccccc1", "> 320 µM"),
    ("CCOC(=O)/C=C/[C@H](CCC(N)=O)NC(=O)CNC(=O)[C@H](CC(C)C)NC(=O)OCc1ccccc1", "> 320 µM"),
    ("CCOC(=O)/C=C/[C@H](CCC(N)=O)NC(=O)[C@H](Cc1ccccc1)NC(=O)[C@H](CO)NC(=O)OCc1ccccc1", "> 320 µM"),
    ("CCOC(=O)/C=C/[C@H](CCC(C)=O)NC(=O)[C@H](Cc1ccccc1)NC(=O)[C@H](CC(C)C)NC(=O)OCc1ccccc1", "> 100 µM"),
    ("CCOC(=O)/C=C/[C@H](CCC(N)=O)NC(=O)[C@H](Cc1ccccc1)NC(=O)[C@H](CC(C)C)NC(=O)C(C)C", "> 320 µM"),
    ("CCOC(=O)/C=C/[C@H](CCC(N)=O)NC(=O)[C@H](Cc1ccccc1)NC(=O)[C@H](CC(C)C)NC(=O)OC(C)(C)C", "> 100 µM"),
    ("CCOC(=O)/C=C/[C@H](CCC(N)=O)NC(=O)[C@H](Cc1ccc(COC)cc1)NC(=O)[C@H](CC(C)C)NC(=O)OCc1ccccc1", "> 320 µM"),
    ("CCOC(=O)/C=C/[C@H](CCC(N)=O)NC(=O)[C@H](Cc1ccccc1)NC(=O)[C@@H](NC(=O)OCc1ccccc1)C(C)(C)CO", "> 100 µM"),
    ("CCOC(=O)/C=C/[C@H](CCC(N)=O)NC(=O)[C@H](Cc1ccccc1)NC(=O)[C@H](CC(C)C)NC(=O)c1ccc(Oc2ccccc2)cc1", "> 320 µM"),
    ("CCOC(=O)/C=C/[C@H](CCC(N)=O)NC(=O)[C@H](Cc1ccccc1)NC(=O)[C@H](CC(C)C)NC(=O)N(C)Cc1ccccc1", "> 100 µM"),
    ("CCOC(=O)/C=C/[C@H](CCC(N)=O)NC(=O)[C@H](Cc1ccccc1)NC(=O)[C@H](CC(C)C)NC(=O)OCc1ccncc1", "> 320 µM"),
    ("CCOC(=O)/C=C/[C@H](CCC(N)=O)NC(=O)[C@H](Cc1ccc(C(N)=O)cc1)NC(=O)[C@H](CC(C)C)NC(=O)OCc1ccccc1", "177 µM"),
    ("CCOC(=O)/C=C/[C@H](CCC(N)=O)NC(=O)[C@H](Cc1ccccc1)NC(=O)[C@H](CCSC)NC(=O)OCc1ccccc1", "> 100 µM"),
    ("CCOC(=O)/C=C/[C@H](CCC(N)=O)NC(=O)[C@H](Cc1ccccc1)NC(=O)[C@@H](NC(=O)OCc1ccccc1)C(C)C", "> 320 µM"),
]

###

# maps each entry to its K obs / 1
- TARGET_OF_ASSAY: UniProtKB Q4U254
- TEST_PROTOCOL: Binding affinity on human Rhinovirus 3C protease (rhinovirus serotype 14)

# COMPOUND_STRUCTURE, UNIT_OF_MEASUREMENT, K obs / 1
records = [
    ("CCOC(=O)/C=C/[C@H](CCC(N)=O)NC(=O)[C@H](Cc1ccccc1)NC(=O)[C@H](CC(C)C)NC(=O)[C@@H](NC(C)=O)[C@@H](C)O", "M⁻¹ s⁻¹", 4600),
    ("CCOC(=O)/C=C/[C@H](CCC(N)=O)NC(=O)[C@H](CC)NC(=O)[C@H](CC(C)C)NC(=O)OCc1ccccc1", "M⁻¹ s⁻¹", 4500),
    ("CCOC(=O)/C=C/[C@H](CCC(N)=O)NC(=O)[C@H](Cc1ccccc1)NC(=O)[C@H](CC(C)C)NC(=O)OCc1ccccc1Cl", "M⁻¹ s⁻¹", 19000),
    ("CCOC(=O)/C=C/[C@H](CCC(N)=O)NC(=O)[C@H](Cc1ccccc1)NC(=O)[C@H](CSc1ccccc1)NC(=O)OCc1ccccc1", "M⁻¹ s⁻¹", 141000),
    ("CCOC(=O)/C=C/[C@H](CCC(N)=O)NC(=O)[C@H](Cc1ccccc1)NC(=O)[C@H](CC(C)C)NC(=O)N(C)Cc1ccccc1", "M⁻¹ s⁻¹", 3200),
    ("CCOC(=O)/C=C/[C@H](CCC(N)=O)NC(=O)[C@H](Cc1ccccc1)NC(=O)[C@H](CC(C)C)NC(=O)[C@@H](NC(C)=O)C(C)C", "M⁻¹ s⁻¹", 26700),
    ("CCOC(=O)/C=C/[C@H](CCC(N)=O)NC(=O)OCc1ccccc1", "M⁻¹ s⁻¹", 4.5),
]

###

- System: rhinovirus B14
- TEST_PROTOCOL: Cytotoxic activity against HRV-14 in cell culture
- Type: functional, rhinovirus 14
- APPLIED_CONDITIONS: Rhinovirus B
compounds and their reported CC50

# COMPOUND, CC50
rows = [
    ("CCOC(=O)/C=C/[C@H](CCC(N)=O)NC(=O)[C@H](Cc1ccccc1)NC(=O)[C@@H](NC(=O)OCc1ccccc1)C(C)(C)O", "> 100 µM"),
    ("CCOC(=O)/C=C/[C@H](CCC(N)=O)NC(=O)[C@H](Cc1ccccc1)NC(=O)[C@H](CC(C)C)NC(=O)OCc1ccccc1Cl", "> 100 µM"),
    ("CCOC(=O)/C=C/[C@H](CCC(N)=O)NC(=O)[C@H](Cc1ccccc1)NC(=O)[C@H](C)NC(=O)OCc1ccccc1", "> 320 µM"),
    ("CCOC(=O)/C=C/[C@H](CCC(N)=O)NC(=O)[C@H](Cc1ccccc1)NC(=O)[C@H](CC(C)C)NC(=O)SC1CCCC1", "> 100 µM"),
    ("CCOC(=O)/C=C/[C@H](CCC(N)=O)NC(=O)[C@H](Cc1ccccc1)NC(=O)[C@H](CC(C)C)NC(=O)C1CCCC1", "> 320 µM"),
    ("CCOC(=O)/C=C/[C@H](CCC(N)=O)NC(=O)C(NC(=O)[C@H](CC(C)C)NC(=O)OCc1ccccc1)[C@H](C)O (some centres not stated)", "> 320 µM"),
    ("CCOC(=O)/C=C/[C@H](CCC(N)=O)NC(=O)[C@H](CC)NC(=O)[C@H](CC(C)C)NC(=O)OCc1ccccc1", "> 320 µM"),
]

###

- TARGET_OF_ASSAY: Human rhinovirus A protease (Human rhinovirus sp.) (UniProt Q4U254)
- TEST_PROTOCOL: Binding affinity on human Rhinovirus 3C protease (rhinovirus serotype 14)
Values of K obs / 1 strictly less than 40000 M⁻¹ s⁻¹ map to yes (1), and values of at least 40000 M⁻¹ s⁻¹ map to no (0).

# COMPOUND_STRUCTURE, CLASS_LABEL
measured = [
    ("CCOC(=O)/C=C/[C@H](CCC(N)=O)NC(=O)[C@H](Cc1ccccc1)NC(=O)[C@H](CC(C)C)NC(=O)[C@H](C)NC(C)=O", "no (0)"),
    ("CCOC(=O)/C=C/[C@H](CCC(N)=O)NC(=O)[C@H](Cc1ccccc1)NC(=O)[C@@H](NC(=O)OCc1ccccc1)C1CCCCC1", "yes (1)"),
    ("CCOC(=O)/C=C/[C@H](CCC(N)=O)NC(=O)[C@H](Cc1ccc(OP(=O)(O)O)cc1)NC(=O)[C@H](CC(C)C)NC(=O)OCc1ccccc1", "yes (1)"),
    ("CCOC(=O)/C=C/[C@H](CCC(N)=O)NC(=O)[C@H](Cc1ccccc1)NC(=O)[C@H](CC(C)C)NC(=O)OC", "yes (1)"),
    ("CCOC(=O)/C=C/[C@H](CCC(N)=O)NC(=O)[C@H](Cc1ccccc1)NC(=O)[C@H](CC(=O)N(C)C)NC(=O)OCc1ccccc1", "yes (1)"),
    ("CCOC(=O)/C=C/[C@H](CCC(N)=O)NC(=O)[C@H](Cc1ccccc1)NC(=O)[C@H](CSCc1ccccc1)NC(=O)OCc1ccccc1", "no (0)"),
    ("CCOC(=O)/C=C/[C@H](CCC(N)=O)NC(=O)[C@H](Cc1ccccc1)NC(=O)[C@H](CC(C)C)NC(=O)SC1CCCC1", "no (0)"),
]
